Parameter: MIC. Scope: all listed entries.
# Test system: Saccharomyces cerevisiae
# test summary: Antifungal activity against Saccharomyces cerevisiae ATCC 9763 after 24 hrs by broth microdilution method
# Type: functional
# test context: ATCC 9763, 24 h
value kind: MIC (µg/mL)

molecule="CC(C)c1csc(-c2nnc3n2NC(c2ccccc2Cl)S3)n1 (stereo not drawn)" relation_qualifier== value_reported=125
molecule=Cc1ccc(C2=Nn3c(nnc3-c3nc(C(C)C)cs3)SC2)cc1 relation_qualifier== value_reported=62.5
molecule=CC(C)c1csc(-c2n[nH]c(=S)n2NC(=O)c2ccc(O)cc2)n1 relation_qualifier== value_reported=31.2
molecule=COc1cc(/C=N/n2c(-c3nc(C(C)C)cs3)nn(CN3CCOCC3)c2=S)cc(OC)c1OC relation_qualifier== value_reported=125
molecule=CC(C)c1csc(-c2n[nH]c(=S)n2NC(=O)c2ccccc2)n1 relation_qualifier== value_reported=62.5
molecule=CC(C)c1csc(-c2nn(CN3CCOCC3)c(=S)n2/N=C/c2ccc(N(C)C)cc2)n1 relation_qualifier== value_reported=62.5
molecule=CC(C)c1csc(-c2nnc3n2N=C(c2ccc(O)cc2)CS3)n1 relation_qualifier== value_reported=16
molecule=Cc1nn2c(-c3nc(C(C)C)cs3)nnc2s1 relation_qualifier== value_reported=62.5
molecule=COc1cc(/C=N/n2c(-c3nc(C(C)C)cs3)nn(CN3CCN(C)CC3)c2=S)cc(OC)c1OC relation_qualifier== value_reported=125
molecule=CC(C)c1csc(-c2nn(CN3CCN(C)CC3)c(=S)o2)n1 relation_qualifier== value_reported=62.5
molecule=CC(C)c1csc(-c2nnc3sc(S)nn23)n1 relation_qualifier== value_reported=16
molecule="CC(C)c1csc(-c2nnc3n2NC(c2ccc([N+](=O)[O-])cc2)S3)n1 (stereo not drawn)" relation_qualifier== value_reported=16
molecule=CC(C)c1csc(-c2nnc3n2N=C(c2ccccc2)CS3)n1 relation_qualifier== value_reported=62.5
molecule=CC(C)c1csc(-c2nn(CN3CCOCC3)c(=S)n2/N=C/c2ccccc2Cl)n1 relation_qualifier== value_reported=125
molecule=COc1ccc(/C=N/n2c(-c3nc(C(C)C)cs3)nn(CN3CCN(C)CC3)c2=S)cc1 relation_qualifier== value_reported=16
molecule=CC(C)c1csc(-c2nnc3n2N=C(c2ccc(Cl)cc2)CS3)n1 relation_qualifier== value_reported=16
molecule=OC(Cn1cncn1)(Cn1cncn1)c1ccc(F)cc1F relation_qualifier=≤ value_reported=1
molecule="COc1cc(C2Nn3c(nnc3-c3nc(C(C)C)cs3)S2)cc(OC)c1OC (stereo not drawn)" relation_qualifier== value_reported=16

Reference source for all entries: ChEMBL document CHEMBL1275278
